- test_name: Clearance in cynomolgus monkey at 1 mg/kg, iv
- Type: ADME, organism-based, Macaca fascicularis
- test_settings: in vivo
reported_endpoint: clearance

Query: clearance; subject: Cc1cc(-c2ccnc(Nc3cnn(C)c3)n2)ccc1CNC(=O)N1CC(OC(C)C)C1 11 mL/min/kg

---

- test_name: Toxicity in cynomolgus monkey measured up to 13 weeks
- Set-up: species or system Macaca fascicularis
- test_settings: in vivo
reported_endpoint: NOAEL at 2184 h (mg/kg/day)
Answers are plain numbers, in mg/kg/day.

Query: NOAEL at 2184 h; subject: Cc1cc(-c2ccnc(Nc3cnn(C)c3)n2)ccc1CNC(=O)N1CC(OC(C)C)C1 100

---

- test_name: Toxicity in Sprague-Dawley rat measured up to 13 weeks
- test_settings: in vivo
reported_endpoint: NOAEL at 2184 h (mg/kg/day)
Numbers only, in mg/kg/day.

Query: NOAEL at 2184 h; subject: Cc1cc(-c2ccnc(Nc3cnn(C)c3)n2)ccc1CNC(=O)N1CC(OC(C)C)C1 50

---

- test_name: Oral bioavailability in Sprague-Dawley rat
- Assay type: ADME, organism-based
- test_settings: in vivo
reported_endpoint: bioavailability (%)
Give bare numbers, in %.

Query: bioavailability; subject: Cc1cc(-c2ccnc(Nc3cnn(C)c3)n2)ccc1CNC(=O)c1cnc(C(C)(C)C)s1 24

---

- test_name: Volume of distribution at steady state in rat at 1 mg/kg, iv
- Assay type: ADME, organism-based
- test_settings: in vivo, read-out: Vdss
reported_endpoint: Vd (L/kg)
One number for each entry, in L/kg.

Query: Vd; subject: Cc1cc(-c2ccnc(Nc3cnn(C)c3)n2)ccc1CNC(=O)N1CC(OC(C)C)C1 0.2

---

- test_name: Clearance in Sprague-Dawley rat at 1 mg/kg, iv relative to hepatic blood flow
- Type: ADME, organism-based
- test_settings: in vivo
reported_endpoint: CL (%)
Give bare numbers, in %.

| chemical_string | unit_tag | data_value |
| --- | --- | --- |
| Cc1cc(-c2ncnc3[nH]ccc23)ccc1CNC(=O)c1cnc(C(C)(C)C)s1 | % | 43 |

Batch request: CL for each of the following compounds.
1. Cc1cc(-c2ccnc(Nc3cnn(C)c3)n2)ccc1CNC(=O)c1nnc(C(C)(C)C)s1
2. Cc1cc(-c2ccnc(Nc3cnn(C)c3)n2)ccc1CNC(=O)N1CC(CC(C)C)C1
3. Cc1cc(-c2ccnc(Nc3cnn(C)c3)n2)ccc1CNC(=O)c1cnc(C(C)(C)C)s1

1: 18; 2: 17; 3: 6

---

- test_name: Half life in human at 10 to 120 mg administered orally using tablet form of sample
- Type: ADME
- test_settings: in vivo, po, dose 10-120 mg
reported_endpoint: half-life (h)
Give bare numbers, in h.

Query: half-life; subject: Cc1cc(-c2ccnc(Nc3cnn(C)c3)n2)ccc1CNC(=O)N1CC(OC(C)C)C1 6

---

- test_name: Protein binding in rat plasma assessed as unbound fraction
- Type: ADME, cell-free
reported_endpoint: fraction unbound
One number for each entry.

Query: fraction unbound; subject: Cc1cc(-c2ccnc(Nc3cnn(C)c3)n2)ccc1CNC(=O)N1CC(OC(C)C)C1 0.0128

---

- test_name: Tmax in human at 10 to 120 mg administered orally using tablet form of sample
- Assay type: ADME
- test_settings: in vivo, po, dose 10-120 mg
reported_endpoint: Tmax (min)
One number for each entry, in min.

Query: Tmax; subject: Cc1cc(-c2ccnc(Nc3cnn(C)c3)n2)ccc1CNC(=O)N1CC(OC(C)C)C1 54

Where these numbers come from: ChEMBL document CHEMBL4699451
